Assay: Human HepG2 cell viability assay in 384 well format
Assay type: toxicity, cell-based
Set-up: dose 125 nL, time 70.5 hour; concentration not given beside the values
Details: HepG2 cells, read-out: Inhibition

# molecule, cytotoxicity at 70.5 h, %
rows = [
    ("CCc1cnc(CN(C)C2CCN(CC(=O)Nc3nccs3)C2)o1 (configuration not stated)", 23),
    ("CCc1ccccc1OCCN1CCC(NS(C)(=O)=O)CC1", 3.87),
    ("Cc1nn(C)cc1-c1ccnc(N(C)Cc2cccs2)n1", 2.52),
    ("COc1ccc(CCNC(=O)CN2CCCC2c2noc(C)n2)cc1 (configuration not stated)", -1.93),
    ("O=C(C1CN(CC2CCOCC2)CC12CCOCC2)N1CCCC1 (configuration not stated)", -2.27),
    ("Cc1cc(C)n(CC(=O)N2Cc3cnc(C(C)(C)C)nc3C2)n1", -4.01),
    ("O=C(NS(=O)(=O)c1cc(Cl)ccc1Cl)c1cccc2c1OCCO2", 58.5),
    ("Cc1ccc(CN(C)c2nccc(-c3cn(C)nc3C)n2)o1", -9.08),
    ("Cc1ccsc1[C@@H]1CCN(C(=O)CCOc2ccccc2)C[C@H]1O", -8.93),
    ("COC(=O)c1cnc(/C=C/c2ccc(C(=O)O)cc2)s1", 0.0314),
    ("CN1CCCCC(C2CCN(S(=O)(=O)c3cn(C)cn3)CC2)C1=O (configuration not stated)", 0.674),
    ("O=C(c1cccc(C2CCNC2)c1)N1CCC(c2ncc[nH]2)CC1 (configuration not stated)", -17),
    ("O=C(CCc1nc(C2CC2)no1)c1ccccc1", -16),
    ("Cc1cccc(C(=O)N2CCCCC2c2[nH]ncc2S(C)(=O)=O)c1 (configuration not stated)", -2.12),
    ("Cc1ccc(C(=O)Nc2ccc(S(=O)(=O)/N=C3\\CCCN3C)cc2)s1", -10),
    ("CNc1nc(CNC(=O)Nc2ccccc2SC)cs1", 3.31),
    ("CN(Cc1cccc(OC(F)(F)F)c1)C(=O)c1ccncc1F", -4.4),
    ("Cc1csc(NC(=O)C2CCN(Cc3cccc4c3OCCO4)CC2)n1", 8.1),
    ("CCc1nnsc1C(=O)N1CCCN(Cc2ccc(C)cc2)CC1", -8.18),
    ("CN1CCCN(c2cnn(Cc3ccncc3)c(=O)c2)CC1", -9.95),
    ("Cc1cc(C2CCC2)nc(N2CC(n3cccn3)C2)n1", -4.39),
    ("COc1cc(OC)nc(N2CCC3(CC2)OCCCC3O)n1 (configuration not stated)", -5.5),
    ("Cc1nc(NC(=O)N2CCCC(C(C)(C)O)C2)nn1C (configuration not stated)", -6.42),
    ("CN1CCN(C(=O)c2cccc(S(=O)(=O)NCC3(C)COC3)c2)CC1", -9.16),
    ("O=C(CN1CCCC1Cn1cncn1)NCCOc1ccc(F)cc1 (configuration not stated)", -0.118),
    ("CCc1nnc(Nc2cccc(C3CCCN(CC(C)(C)C)C3)n2)s1 (configuration not stated)", -10.7),
    ("Cc1noc([C@]23COC[C@H]2CN(C(C)C)C3)n1", 1.38),
    ("Cc1cccc(CNCc2ccc(NC(=O)NC(C)C)cc2)c1", 2.57),
    ("Cc1ncsc1CNC(=O)N1CCN(Cc2ccccc2)C[C@H]1C", -3.58),
    ("Cc1cnn(C2CN(CC(O)c3ccccc3)C2)c1 (configuration not stated)", 27.4),
    ("COc1cc(F)ccc1C(C(=O)O)N(C)CCN1CCOCC1 (configuration not stated)", 15.1),
    ("O=C1C[C@H]2[C@H](CCN2C(=O)c2ccno2)N1CC1CC1", -4.81),
    ("Fc1ccc(CN2CCC3(CCCN(c4nncs4)C3)C2)cc1 (configuration not stated)", -2.74),
    ("COc1ccccc1CN(C)c1nc2c(cnn2C)c(=O)[nH]1", -10.3),
    ("CN(CCO)Cc1nnc(C2CCN(C(=O)c3ccccn3)CC2)n1C", 1.55),
    ("CCN(C(=O)CCOC)C(c1ccc(Cl)cc1)c1ccccn1 (configuration not stated)", -6.55),
    ("CC(C)C1CN(C(=O)c2ccc(Cl)cn2)CCCN1CC1CC1 (configuration not stated)", -6.77),
    ("CCNC(=O)N1CC[C@H]2CC(=O)N(CC(N)=O)CC[C@H]2C1", -1.17),
    ("CN(C)c1ncc(-c2cccc(F)c2)c(C2CNCCO2)n1 (configuration not stated)", -5.48),
    ("CC(C)Nc1nc2c(cc1C(=O)NCC1CC1)CCN(S(C)(=O)=O)CC2", -6.91),
    ("Cc1ccc2c(c1)SCC(=O)N2CC(=O)N1CCCC1c1cc(C)no1 (configuration not stated)", 12.8),
    ("Cc1nc(CCNCc2c(C)nn(C)c2N2CCOCC2)cs1", -0.903),
    ("COc1cccc(CNC(=O)Nc2ccc3[nH]nnc3c2)c1OC", -9.41),
    ("Cn1c(=O)oc2ccc(NC(=O)N3CCSCC3)cc21", -18.1),
    ("COc1cc(CNc2nc(C(F)(F)F)no2)cc(OC)c1OC", -4.05),
    ("CN1CCC(Cc2noc(-c3cccc(OCC(N)=O)c3)n2)CC1", 7.49),
    ("Cc1ccc(CC(=O)N2CCOCC2c2c(C)n[nH]c2C)cc1 (configuration not stated)", -21.7),
]
